- Experimental Target: T1, soluble cynomolgus monkey IL-6R (cynomolgus monkey, UniProt A0A2K5WN54 60-396)
- T1 construct: extracellular domain; also called scyIL-6R; soluble cynomolgus monkey IL-6 Receptor; not shown: C-terminal His- or Avi-Tag
- T1 sequence: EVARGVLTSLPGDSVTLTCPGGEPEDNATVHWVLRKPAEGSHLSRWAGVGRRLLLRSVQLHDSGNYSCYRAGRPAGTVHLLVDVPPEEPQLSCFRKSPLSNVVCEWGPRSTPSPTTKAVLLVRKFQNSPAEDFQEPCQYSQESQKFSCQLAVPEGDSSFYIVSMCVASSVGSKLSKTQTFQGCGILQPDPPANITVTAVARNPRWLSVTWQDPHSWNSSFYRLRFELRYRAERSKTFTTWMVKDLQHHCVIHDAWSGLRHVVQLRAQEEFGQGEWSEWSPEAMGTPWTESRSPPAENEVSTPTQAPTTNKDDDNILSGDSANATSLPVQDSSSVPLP
- Test Protocol: SPR (Biacore 2000), mAb captured on anti-human IgG Fc, analyte in solution, 25 C, 1:1 Langmuir
Parameter Measured: Kd (nM)
Express your answer in nM, writing the number without its unit.

Query: Would you mind telling me what Kd value was observed for NI-1201-B antibody (antibody, V domains shown) VH: QVQLVQSGAEVKKPGSSVKVSCKASGGTFSSYAISWVRQAPGQGLEWMGGIIPLFDTTKYAQKFQGRVTITADESTSTAYMELSSLRSEDTAVYYCARDRDILTDYYPLGGMDVWGQGTTVTVSS VL: AIQLTQSPSSLSASVGDRVTITCRASQGISSVLAWYQQKPGKAPKLLIYDASSLESGVPSRFSGSGSGTDFTLTISSLQPEDFATYYCQQSNSYPLTFGGGTKVEIKR ?
Response: 1.81

Query: What value of Kd has been reported for the following binder? NI-1201-D antibody (antibody, V domains shown) VH: QVQLVQSGAEVKKPGSSVKVSCKASGGTFSSYAISWVRQAPGQGLEWMGGIIPAFETTKYAQKFQGRVTITADESTSTAYMELSSLRSEDTAVYYCARDRDILTDYYPLGGMDVWGQGTTVTVSS VL: AIQLTQSPSSLSASVGDRVTITCRASQGISSVLAWYQQKPGKAPKLLIYDASSLESGVPSRFSGSGSGTDFTLTISSLQPEDFATYYCQQSQSYPLTFGGGTKVEIKR
Response: 1.79

Query: I am curious: what Kd value has been reported for NI-1201-A antibody (antibody, V domains shown) VH: QVQLVQSGAEVKKPGSSVKVSCKASGGTFSSYAISWVRQAPGQGLEWMGGIIPLFDTTKYAQKFQGRVTITADESTSTAYMELSSLRSEDTAVYYCARDRDILTDYYPMGGMDVWGQGTTVTVSS VL: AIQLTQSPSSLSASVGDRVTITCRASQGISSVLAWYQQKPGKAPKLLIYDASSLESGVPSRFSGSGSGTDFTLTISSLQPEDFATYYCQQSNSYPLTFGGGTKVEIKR ?
Response: 2.05
